- system: recombinant human Meningioma Expressed Antigen 5 (MGEA5), also referred to as O-GlcNAcase (OGA) (Homo sapiens)
- Construct: Full length OGA enzyme was purchased at OriGene (cat #TP322411); purchased OriGene TP322411
- Sequence (O60502 1-916): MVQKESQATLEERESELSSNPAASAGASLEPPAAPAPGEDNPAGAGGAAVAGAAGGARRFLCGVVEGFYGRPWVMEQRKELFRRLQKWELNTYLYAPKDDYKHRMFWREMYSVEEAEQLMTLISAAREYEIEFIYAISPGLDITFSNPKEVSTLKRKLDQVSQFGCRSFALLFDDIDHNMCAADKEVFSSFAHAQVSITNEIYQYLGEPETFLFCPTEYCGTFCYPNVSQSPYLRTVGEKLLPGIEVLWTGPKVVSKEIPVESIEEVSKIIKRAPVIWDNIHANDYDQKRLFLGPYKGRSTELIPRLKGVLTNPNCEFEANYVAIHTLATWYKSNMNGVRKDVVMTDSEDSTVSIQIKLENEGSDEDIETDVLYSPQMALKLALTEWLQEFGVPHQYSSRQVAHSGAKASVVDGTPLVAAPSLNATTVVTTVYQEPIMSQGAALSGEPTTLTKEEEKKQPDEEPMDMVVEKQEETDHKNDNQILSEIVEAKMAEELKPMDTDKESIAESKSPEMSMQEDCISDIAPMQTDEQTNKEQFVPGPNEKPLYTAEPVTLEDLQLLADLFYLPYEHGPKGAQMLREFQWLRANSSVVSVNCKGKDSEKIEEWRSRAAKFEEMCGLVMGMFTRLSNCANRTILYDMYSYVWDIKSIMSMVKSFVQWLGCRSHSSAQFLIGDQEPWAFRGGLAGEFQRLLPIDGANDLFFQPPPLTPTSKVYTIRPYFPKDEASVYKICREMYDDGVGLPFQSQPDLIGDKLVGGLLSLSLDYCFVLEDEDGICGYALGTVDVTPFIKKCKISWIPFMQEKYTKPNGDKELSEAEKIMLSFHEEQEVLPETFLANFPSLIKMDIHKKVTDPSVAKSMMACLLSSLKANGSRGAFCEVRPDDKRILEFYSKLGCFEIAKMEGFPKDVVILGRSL
- experimental-details: OGA biochemical assay (inhibition of FM-GlcNAc hydrolysis, fluorescence)
- test-settings: FM-GlcNAc substrate, 6 h at room temperature, read-out: Enzymatic hOGA, pIC50 (converted)
Listed here: items and their measured IC50.
measurement-name: IC50 (nM)

# molecule, result-comparator, reported-value
measured = [
    ("Cc1cc([C@H]2CCCN([C@@H](C)c3nc4nc(C)sc4cc3F)C2)cc(C)n1 (single isomer, unassigned) [Compound 87]", "=", 2.51),
    ("Cc1cc(C[C@H]2CCCN(C(C)c3ccc4nc(C)[nH]c4n3)C2)cc(C)n1 (mixture of isomers) [Compound 8]", "=", 100),
    ("Cc1cc(C[C@H]2CCCN(Cc3ccc4oc(C)nc4n3)C2)cc(C)n1 [Compound 36]", "=", 63.1),
    ("Cc1cc(C2CCCN(C(C)c3cnc4[nH]c(C)nc4c3)C2)cc(C)n1 (stereo not shown) [Compound 1]", "=", 316),
    ("Cc1cc(C2CCCN(C(C)c3cc4nc(C)sc4cc3F)C2)cc(C)n1 (stereo not shown) [Compound 89]", "=", 6.31),
    ("COc1cc(N[C@H]2CCCN(C(C)c3ccc4sc(C)nc4n3)C2)cc(C)n1 (stereo partly shown) [Compound 83]", "=", 10),
    ("Cc1cc(O[C@@H]2CCN(C(C)c3nc4nc(C)sc4cc3F)C2)cc(C)n1 (stereo partly shown) [Compound 92]", "=", 39.8),
    ("Cc1cc(C[C@@H]2CCN(C(C)c3ccc4sc(C)nc4n3)C2)nc(C)n1 (single isomer, unassigned) [Compound 72]", "=", 316),
    ("Cc1cc(C[C@H]2CCN([C@H](C)c3ccc4oc(C)nc4n3)C2)cc(C)n1 [Compound 27b]", ">", 10000),
    ("Cc1cc(C[C@H]2CCCN(C(C)c3ccc4cn(C)nc4c3)C2)cc(C)n1 (mixture of isomers) [Compound 16]", "=", 126),
    ("COc1cc(C2CCCN(C(C)c3cnc4[nH]c(C)nc4c3)C2)cc(C)n1 (stereo not shown) [Compound 2]", "=", 200),
    ("Cc1cc(C[C@H]2CCCN(C(C)c3ccc4sc(C)nc4n3)C2)cc(C)n1 (single isomer, unassigned) [Compound 42a]", "=", 501),
    ("COc1cc(O[C@@H]2CCN(C(C)c3ccc4oc(C)nc4n3)C2)cc(C)n1 (mixture of isomers) [Compound 21ab]", "=", 251),
    ("Cc1cc(CO[C@H]2CCCN(C(C)c3cc4nc(C)sc4cc3F)C2)cc(C)n1 (single isomer, unassigned) [Compound 101]", "=", 3.98),
    ("COc1cc(C2CCCN(C(C)c3ccc4oc(C)nc4n3)C2)cc(C)n1 (racemic) [Compound 18]", "=", 20),
    ("Cc1cc([C@H]2CCCN(C(C)c3nc4nc(C)[nH]c4cc3F)C2)cc(C)n1 (stereo partly shown) [Compound 82]", "=", 126),
]
